compound	melting point
O=C(c1cccnc1)c1ccc2c(c1)CN1C=CNC1=N2	275 °C
C=Cc1cc(C)nc2c(OCc3ccccc3)cccc12	114 °C
OC(Cn1cncn1)(Cn1cnc(C=Cc2ccc(C(F)(F)F)cc2)n1)c1ccc(Cl)cn1 (stereo not given)	159 to 161 °C
O=C(c1ccnc(Cl)c1)N1CC(c2ccc(F)cc2)C2(CCN(Cc3ccccc3)CC2)C1 (stereo not given)	70 to 72 °C
CC(=O)C=C1C=C(C(C)(C)C)C(=O)C(C(C)(C)C)=C1	70 to 72 °C
O=C(C1NCCc2sccc21)N1CCCC1 (stereo not given)	114 to 116 °C
Clc1cccc(Cl)c1Cc1c[nH]cn1	142 to 145 °C
COc1ccc(C=C2N=C(c3ccccc3I)OC2=O)cc1OC	200 to 202 °C
COC(=O)Cn1c(C(=O)OCc2ccccc2)cc2cc(C)cc(C)c21	91 to 93 °C
O=C(O)Cc1ccccc1SCc1cc(F)ccc1F	106 to 108 °C

----------
compound	melting point
O=c1nc(-c2ccccc2)c2cc([N+](=O)[O-])ccc2n1CC(F)(F)F	195 to 196 °C
C#CCNC(=O)c1ccc2ccccc2c1	163 to 165 °C
Nc1ncc2cc(-c3c(Cl)cccc3Cl)c(N)nc2n1	325 to 332 °C
O=C(NCC(=O)N(c1ccccc1)c1ccccc1)Nc1cccc(Cl)c1Cl	210 °C
O=C1CCC2CCCC3CC(=O)N1C23 (stereo unspecified)	118 to 120 °C
CC[C@@H](c1ccccc1)N(Cc1ccc(C(N)=O)cc1)S(=O)(=O)c1ccc(Cl)cc1	158 to 159 °C
COc1ccc(C(=O)Oc2ccc(S(N)(=O)=O)cc2)cc1C12CC3CC(CC(C3)C1)C2	223 to 224 °C
CCOC(=O)C1=C(C)NC(COC(=O)c2ccccc2)=C(C(=O)OCC)C1c1ccccc1[N+](=O)[O-] (stereo unspecified)	156 to 157 °C
CCNCCc1c[nH]c2ccc(Cn3cncn3)cc12	106 to 107 °C
COc1ccc(CNc2nnc(NCCCO)c3ccc(C#N)cc23)cc1Cl	132 to 135 °C
C=C1CCn2c(CCc3ccccc3)nc3cccc1c32	81 to 82.2 °C
C=CCc1cc(CC(=O)OC)ccc1OCc1ccc2ccccc2n1	71 °C
O=C1OC[C@@H](CF)N1c1nc(-c2ccc(Br)cc2)cs1	148 to 150 °C
OCc1coc(/C=C/c2ccccc2)n1	94 to 95 °C
CCc1cccc(C)c1CNc1cc(CNC)cn2nc(C)nc12	179 °C
O=C1CCC(c2ccc(NC3=NCCS3)cc2)=NN1	217 to 218 °C
CCCCc1nc2ccccc2n1Cc1ccc(C(=O)O)cc1	229 to 231 °C
Clc1cccc(-c2cn3c(n2)sc2ccccc23)c1	173 to 175 °C
CC(=NOCCOc1ccc(CC2SC(=O)NC2=O)cc1)c1ccc(OCc2ccccc2)nc1 (stereo unspecified)	160 to 161 °C
CCCCCCCCCCCCCCOc1ccc(CNC(=O)NCc2ccccn2)cc1	108 to 109 °C
Cc1cc(Cl)ccc1-n1nc(O)c2[nH]c3cc(Cl)ccc3c(=O)c2c1=O	279 to 281 °C

----------
Let's look at some compounds and their measured melting point.

compound	melting point
N#Cc1cnc2cc(C#CCCCN3CCOCC3)ccc2c1Nc1ccc(Cl)cc1Cl	131 to 133 °C
CCOC(=O)c1c(C(F)(F)F)nc(C(F)(F)F)c(C)c1OC(C)=O	49 to 51 °C
CC(=O)Oc1ccccc1C(=O)Nc1cc(Cl)c(OC(C)=O)c(Cl)c1	154 to 156 °C
CN1CC(O)N(c2cc(C(C)(C)C)on2)C1=O (stereo not given)	173 to 177 °C
COc1ccc(Nc2cc3c(cc2Nc2ccccc2)C(=O)NC3=O)cc1	266 to 267 °C

----------
Listing of entries alongside the reported melting point.

compound	melting point
CCS(=O)(=O)N(Cc1ccccc1)Cc1ccc2[nH]cc(CCCN3CCN(c4ncncc4OC)CC3)c2c1	73 to 75 °C
CCCCCCCCCCCCCCCCCC1CC(OC(=O)c2ccccc2)C(CC)C(=O)O1 (racemic)	64.5 to 66 °C
CC1(COC(=O)N2CC=C(c3ccc(C(F)(F)F)cc3)CC2)Cn2cc([N+](=O)[O-])nc2O1 (stereo not given)	113 to 115 °C
CC(=O)OC(C)(C)c1nnc(-c2ccc3ncn(-c4ccc(OC(F)(F)F)cc4)c3c2)o1	150 to 151 °C
CC(=O)N(C(C)=O)c1cc2c(cc1Cl)C(=O)C1(CCOC1=O)O2 (stereo not given)	181 to 185 °C
O=C1NC(=O)C(Nc2ccc(CCNCC(O)COc3cccc4ccccc34)cc2)S1 (stereo not given)	61 to 62 °C
CNC(=O)Nc1ccc(-c2c[nH]c(=O)cn2)cc1	> 300 °C
CCn1cc(C(=O)O)c(=O)c2cc(F)c(N3CCN(S(=O)(=O)c4ccccc4)CC3)c(F)c21	234 to 235 °C
COc1cc(C)c(OC)c(C=C(C)[N+](=O)[O-])c1C	48 to 49 °C
COc1ccc(Cn2c(=O)cc(C(F)(F)F)n(C)c2=O)cc1	79 to 80 °C
Cc1cn2nc(SCc3ccccc3)nc2nc1Cl	179 to 181 °C
Nc1ccccc1SC[C@H](NC(=O)OCc1ccccc1)C(=O)O	161 to 162 °C
O=C(NC(CC12CC3CC(CC(C3)C1)C2)NC(=N[N+](=O)[O-])Nc1cccnc1)c1ccc(Cl)cc1 (stereo not given)	219 to 220 °C
Oc1cc(Cl)c(N2CCOCC2)cc1Oc1ccc(Cl)cc1Cl	187 to 188 °C
Cc1cc(CC(=O)NCc2cccc3c2C(=O)N(C2CCC(=O)NC2=O)C3=O)oc1C (stereo not given)	221 to 223 °C
CCOC(=O)c1ccc([N+](=O)[O-])cc1F	70 to 73 °C
N#Cc1ccc(O)cc1Cl	157 to 158 °C
COc1ccc2c(-c3ccccc3)c([N+](=O)[O-])oc2c1	100 to 106 °C
CCOC(=O)c1nc2cc(NC(=O)c3c(C(=O)N4CCC4)cnn3C)ccn2n1	252 to 255 °C
CN(C)CCNC1=C(Br)C(=O)c2sc(C(=O)N3CCN(C(=O)C4CCCO4)CC3)nc2C1=O (stereo not given)	161 to 162 °C
COC(=O)CCCCC#Cc1cc(Cl)ccc1N	66 °C
O=C(O)CCC(=O)OCCn1ccnc1	108 to 110 °C
Cc1c(Cc2ccc(C(C)C)cc2)c2c(c(C)c1NC(=O)CC(C)(C)C)CC(C)O2 (stereo not given)	179 to 180 °C
CN1CCN(c2ccc(Nc3ncc4cc5ccccc5n4n3)cc2)CC1	217 to 222 °C
COC(=O)Nc1cccc(C)c1COc1cccn2c(C)c(C)nc12	176 to 177 °C
CCC(C)(C)C(=O)c1ccc(C(=O)O)cc1	128 to 129 °C
O=C(N[C@@H](CO)C(=O)NCCc1ccccc1)c1ccc(C(=O)c2cccnc2)cc1	85 to 90 °C
CNC(=NCCSCc1[nH]cnc1C)NS(C)(=O)=O	133 to 134 °C
N#Cc1cnn(-c2c(Cl)cc(C(F)(F)F)cc2Cl)c1N	165 to 167 °C
COC(=O)c1cc(C(O)CN(C)C)ccc1OCc1ccccc1 (stereo not given)	79 to 81 °C
COC(=O)C=Cc1ccc(O)cc1	139 to 140 °C
COC(=O)C(Cc1cc(OC)cc(OC)c1)c1ccc(Oc2ccc(CC3SC(=O)NC3=O)cc2)cc1 (stereo not given)	125 to 128 °C
CC(=O)CCCCC(=O)Nc1ccc(CCC(=O)O)cc1	148 to 160 °C
Cc1ccc(-n2nc3c4cc(CCc5ccccc5)ccc4[nH]c(=O)n3c2=O)cc1	303 °C
Cc1cc(F)ccc1C(O)(Cc1nnnn1C)c1ccc(F)cc1C	186 to 188 °C
CCC(O/N=C(\C(=O)O)c1csc(N)n1)C(=O)OC(C)(C)C (stereo not given)	122 to 124 °C
COc1cc(C(=O)NS(=O)(=O)c2ccccc2)ccc1Cc1csc2ccc(NC(=O)OC3CCCC3)cc12	253 to 254 °C
COC(=O)CCC(=O)N(O)c1cccc(OCc2nc3ccccc3s2)c1	123 to 125 °C
Brc1ccc2ccn(Cc3ccccc3)c2c1	85 to 88 °C
CCOC(=O)c1c(N2CCC(N(C)C)CC2)c2cc(C)ccc2n(Cc2ccccc2)c1=O	> 60 °C

----------
compound	melting point
Cc1ccc(S(=O)(=O)N(C)c2ccccc(N)c2=O)cc1	221 to 222 °C
CC(=O)c1ccc(Cc2c(Cl)cc(N)cc2Cl)cc1	97 to 98 °C
CC1N=Cc2cc(Cl)ccc2-n2c(Cc3ccccc3)nnc21 (stereo unspecified)	195 to 197 °C
COc1cc(C(C)=O)ccc1OCCN1CCC(C(O)(c2ccc(F)cc2)c2ccc(F)cc2)CC1	131 to 135 °C
O=C(O)c1cccc(-c2ccc(Cl)c3cc(Cc4cc(F)cc(Cl)c4)sc23)c1	110 to 114 °C
CC(C)(SCC(=O)O)c1ccc2c(c1)OCO2	78.5 to 80 °C
c1ccc2c(c1)nc1n2CCCSC1	155 to 157 °C
C#CCCCC(=O)Nc1nc2nn(C)cc2c2nc(-c3ccco3)nn12	210 to 216 °C
O=C1[C@H]2CCCC[C@H]2C(=O)N1Cc1ccncc1	91 to 92 °C
COC(=O)C(=O)c1ccc(OCCOc2ccc3ccccc3c2)cc1	155 to 157 °C
Nc1ncnc2c1c(-c1ccc3cn[nH]c3c1)nn2Cc1oc2ccccc2c(=O)c1-c1ccccc1	140 to 143 °C
CC(C)(C(=O)NC(Nc1c(Nc2cccnc2)c(=O)c1=O)C(C)(C)C)c1ccccc1 (stereo unspecified)	247 to 248 °C
C[Si](C)(C)CCCCNC(=O)n1cc(F)c(=O)[nH]c1=O	129 to 132 °C
Cn1c(NC(=N)N)nc2ccccc21	178 to 179 °C
CCOC(=O)c1cc(OC(C)=O)c2c(OC)ccc(OC)c2c1	110 to 112 °C
CC(C)N(C(=O)COc1nnc(C(F)F)s1)c1cccc(Cl)c1	98 °C
C=Cc1c(C(=O)OC)nc(Cl)c(Cl)c1N	96 to 97 °C
Fc1cccc(CSc2nnc(-c3ccc4nccn4c3)o2)c1	173 to 174 °C
O=[N+]([O-])c1ccc(OCCOc2ccccc2)cc1	86 to 87 °C
CCCN1CCC(c2c(O)cc(O)c3c(=O)cc(-c4ccccc4Cl)oc23)C1CO (stereo unspecified)	94 to 96 °C
O=C(N[C@@H]1C(=O)N[C@@H]1CO)OCc1ccccc1	98 to 100 °C

This collection of values is drawn from a melting point compilation (Tetko et al.; mined from patent text by program, amines drawn as free bases though some values may be those of a salt).
